kon listing for selected binders.
target: Recombinant human his-tagged IGF 1R extracellular domain protein (human) (UniProt P08069)
protocol description: SPR, captured IgG, IGF-1R ECD-his analyte, dissociation pH 6
Report the value in M⁻¹ s⁻¹ with no unit label.

* VRDN-02558 (antibody, V domains shown) VH: EVQLVQSGGGLVKPGGSLRLSCAASGFTFSSFHMHWVRQAPGKGLEWISVIHTRGATYYADSVKGRFTISRDNAKNSLYLQMNSLRAEDTAVYYCARLGNFYYGMDVWGQGTTVTVSS VL: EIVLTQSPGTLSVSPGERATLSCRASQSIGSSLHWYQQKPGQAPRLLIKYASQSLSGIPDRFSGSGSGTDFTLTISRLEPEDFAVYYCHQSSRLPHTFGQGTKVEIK | 53900

Query: So what does the record say about kon for VRDN-02521 (antibody, V domains shown) VH: EVQLVQSGGGLVKPGGSLRLSCAASGFTFSSFAMHWVRQAPGKGLEWISVIDTRGATYYADSVKGRFTISRDNAKNSLYLQMNSLRAEDTAVYYCARLGNHYYGMDVWGQGTTVTVSS VL: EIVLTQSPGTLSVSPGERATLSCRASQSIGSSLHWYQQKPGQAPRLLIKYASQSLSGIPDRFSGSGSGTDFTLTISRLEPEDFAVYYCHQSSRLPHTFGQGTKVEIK ?
Result: 20000

Query: Quick one: kon of VRDN-02500 (antibody, human IgG1, kappa, V domains shown) VH: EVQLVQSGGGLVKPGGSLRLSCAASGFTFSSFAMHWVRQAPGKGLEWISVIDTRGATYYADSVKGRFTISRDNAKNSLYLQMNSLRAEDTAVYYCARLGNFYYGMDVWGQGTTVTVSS VL: EIVLTQSPGTLSVSPGERATLSCRASQSIGSSLHWYQQKPGQAPRLLIKYASQSLSGIPDRFSGSGSGTDFTLTISRLEPEDFAVYYCHQSSRLPHTFGQGTKVEIKR ?
Result: 47500
